Biological target: Pantothenate synthetase (Mycobacterium tuberculosis (strain ATCC 25618 / H37Rv))
Test: Coupled enzyme confirmation of inhibitors against recombinant Mtb PanC (AID 375);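 further: 0% = full reaction with vehicle and 100% = no enzyme background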
Details: coupled enzyme assay; at 10 µM, active compounds read high
Give inhibition for every item shown.
The reply should contain only the number, in %.

I'd like to know its inhibition. The compound in question is COc1ccc(-n2nc(C(=O)NCC(=O)NCC3CCCO3)c3ccccc3c2=O)cc1 (configuration not stated)
0

What value of inhibition has been reported for the following compound? Cc1ccc2[nH]c3c(N4CCOCC4)ncnc3c2c1
0

For the compound shown here, CCCNc1nc(N2CCOCC2)nc(N2CCOCC2)n1 , give the reported inhibition.
0

Endpoint output: inhibition of COCCCn1c(=N)c(C(=O)NCC2CCCO2)cc2c(=O)n3cccc(C)c3nc21 (configuration not stated) . Value?
0

Suppose we examine the compound O=C(Cn1nc(Cc2cccnc2)c2ccccc2c1=O)Nc1ccc2c(c1)OCO2 ; what inhibition value has been reported?
0

I am curious: what inhibition value has been reported for CCOC(=O)c1ccc(N2C(=O)C3CC=CCC3C2=O)cc1 (configuration not stated) ?
1

Returns the measured inhibition for the input compound. Input: COc1ccc(CCn2c(NCCCN3CCOCC3)nc3c2c(=O)[nH]c(=O)n3C)cc1
0

Would you mind telling me what inhibition value was observed for FC(F)Oc1cccc2cccnc12 ?
6

What measured inhibition goes with Cc1ccc(S(=O)(=O)N(C)CC(=O)NC2CCCC2)cc1 ?
0

# query: inhibition of entry CCOC(=O)C(C)On1c(SC(C)C(=O)OCC)nc2ccccc2c1=O (configuration not stated)
0

inhibition for O=C(CCn1c(=O)oc2ccccc21)N1CCCCCC1 ?
0

State the recorded inhibition for this entry: COCCc1ccc(OCC(O)CNC(C)C)cc1 (configuration not stated)
6

Look up inhibition for this compound: Oc1ccc(N2CCN(C(c3cccnc3)c3nnnn3Cc3ccccc3)CC2)cc1 (configuration not stated)
0

Record request: inhibition value, item Cc1ccc2[nH]c(=O)c(C(c3nnnn3CCc3ccccc3)N3CCOCC3)cc2c1 (configuration not stated)
6

Please look up its inhibition: CC(=O)c1cccc(NC(=O)N2C3CCC2CC(O)(c2cccnc2)C3)c1 (configuration not stated)
0

Which inhibition reading was recorded for the compound COc1ccc(-n2c(=O)c3c4c(sc3n3c(C)nnc23)CCCC4)cc1 ?
3

Name the recorded inhibition for Cc1ccc(C)c2[nH]c(=O)c(CCNC(=O)CC(C)(C)C)cc12 .
4

I have this compound here, O=C(NCc1cccs1)C1CCCN(c2ncccn2)C1 (configuration not stated) , and I need its recorded inhibition.
0

Can you share its inhibition? I mean this compound: Cc1ccccc1OCCN1C(=O)NC2(CCc3ccccc32)C1=O (configuration not stated)
8

Quick one: inhibition for O=C(NCCCn1ccnc1)c1cnn2c1NC(c1ccccc1)CC2C(F)(F)F (configuration not stated) ?
2

Need inhibition, item CCOC(=O)c1cnc(C(C)(C)C)[nH]c1=O
10

# input compound: Cc1cc(C)c(NC2=NCC(=O)N2C2CCCCC2)c(C)c1 ; wanted: its inhibition
0

What does the record list as inhibition for COc1ccc(-c2cc(O)cc(O)c2)cc1 ?
0

Bench note: what inhibition did Cc1cccc2cc(CN(CC3CCCO3)C(=O)c3cnccn3)c(=O)[nH]c12 (configuration not stated) show?
0

Bench note: what inhibition did COc1ccc(CCNC(=O)c2cc(-c3cc(C)c(C)cc3O)n[nH]2)cc1OC show?
0

// inhibition lookup, key: CNC[C@H](O)c1cccc(O)c1
0

Given CC1(c2ccc(Cl)cc2)NC(=O)N(CC(=O)NC(=O)NCc2ccco2)C1=O (configuration not stated) , state its recorded inhibition.
1

Reported inhibition for c1ccc(SCc2nc3ccccc3[nH]2)nc1 : what is it?
4

Sample Cc1c(Cl)cccc1Nc1ccccc1C(=O)O — what was its inhibition?
1

Requested read-out: inhibition. Entry: COc1ccc(C(C(=O)NC2CCCCC2)N2CCC3(CC2)OCCO3)cc1 (configuration not stated)
0

Given the compound O=C(O)CN(c1ccccc1)C1SC(=O)NC1=O (configuration not stated) , what is its reported inhibition?
0

Reported inhibition, compound O=C(Nc1ccncc1)C1c2ccccc2Oc2ccccc21 : ____
0

// provenance: PubChem BioAssay
